Assay: yeast display, Sf9 membrane polyspecificity reagent, FACS + sequencing; frameworks hold sequencing errors
measured-quantity: polyreactivity (PSR sort gate)

QVQLVESGGGFVQAGGSLRLSCAASGHIFFYYTKGWYRQAPGKERELVAGITIGGSTNYADSVKGRFTISRDNAKNSVYLQMNSLKPEDTAVYYCYVVLYVSIYSYGEYYYWGQGTQVTVSS ... low polyreactivity
QVQLVESGGGLVQAGGSLRLSCAASGITFFYNAMGWYRQAPGKERELVADITNSGSTYYADSVKGRFTISRDNAKNTVYLQMNSLKPEDTAVYYCAAGQAYDYFVYYPDDYWGQGTQVTVSS ... low polyreactivity
QVQLVESGGGLVQAGGSLRLSCAASGNTFGENAMGWYRQAPGKERELVAAISNGGTTNYADSVKGRFTISRDNAKNTVYLQMNSLKPEDTAVYYCNAKFGISQPGHSGLLKMDYWGQGTQVTVSS ... low polyreactivity
QFQLVESGGGLVQAGGSLRLSCAASGSIFKYNAMGWYRQAPGKEREFVAAISSSSGNTYYADSVKGRFTISRDNAKNTLYFQMNSLKPEDTAVYYCAADASRPRIPEMYYWGQGTQVTVSS ... high polyreactivity
QVQLVESAGCLVQAGGSLRLSCAASGSTIYRYAMGWYRQAPGKERELVAAITRTGGSTYADSVKGRFTISRDNAKNSVFLQMNSLKPEDTAVFYCAVQRYYVSSISPFYYWGQGTQVTVSS ... low polyreactivity
QVQLVESGGGLVQAGGSLRLSCAASGRIFYLYAMGWYRQAPGKERELVAAISVSGARTYYADSVKGRFTISRDNAKNTVYLHMNSLKPEDTAVYYCATVGPYRSRRAGDYWGQGTQVTVSS ... high polyreactivity
QVQLVDSGGGLVQAGGSLRLSCAASGSTFDTNVMGWYRQAPGKERELVAAIDVSGGSTYYADSVKGRFTISRDNAKNTVYLQMNSLKPVDTAVYYCAAEDGQYGMDYWGQGTQVSVSS ... low polyreactivity
QVQLVESGGGLVQAGGSLRLSCAASGFIFYYYTMGWYTQAPGKERELVAAISKSGGNTYYADSVKGRFTISRDNAKNTVYLQMNSLKPEVTAVYYCAASRYNTVTYYYSGQGTQVTVSS ... high polyreactivity

(Q) For the sequence shown here, QVQLVESGGGLVQAGGSLRLSCAASGRIYASYVMGWYRQAPGKERELVAAISYGGSRTYYADSVKGRFTISRDNAKNTVYLQMNSLKPEDTAVYYCAAKKYTNRGYYYWGQGTQVTVSS , give the reported polyreactivity (PSR sort gate).
(A) high polyreactivity

(Q) Suppose we examine the sequence QVQLVESGGGLVQAGGSLRLSCAASGSTFNKYTMGWYRQAPGKERELVAAISSIGGSTYYADSVKGRFTISRDNAKNTVYLQMNSLKPEDTAVYYCAAPYPIGHDWGQGTQVTVSS ; what polyreactivity (PSR sort gate) value has been reported?
(A) low polyreactivity

(Q) # get_value(readout='polyreactivity (PSR sort gate)', item= QVQLVESGGGLVQAGGSLRLSCAASGSIFSDNVMGGYRQAPGKERELVAAIRDGDTTNYADSVKGRFTISRDNAKNTVYLQMNSLKPEDTAVYYCATRNTWYHRGYDYWGQGTQVTVSS )
(A) low polyreactivity

(Q) Given the entry QGQLVESGGVLVQAGGSLRLSCAASGSIIQPYAMGWYRQAPGKERELVAAISRGGTTYYADSVKGRFTISRDNAKNTVYLQMNSLKPEDTAVYYCAVKGYRYGTRYDYWGQGTQVTVSS , report its measured polyreactivity (PSR sort gate).
(A) high polyreactivity

(Q) I would be grateful if you could share the reported polyreactivity (PSR sort gate) for QVQLVESGGGLVQAGGSLRLSCAASGFTFHKNAMGWYRQAPGKERELVAAISRSGGRTYYADSVKGRFTISRDNAKNTVYLQMNSLKPEDTAVYYCNATPLLWAGYDYWGQGTQVTVSS .
(A) high polyreactivity

(Q) Look up polyreactivity (PSR sort gate) for this sequence: QVQLVESGGGLVQAGGSLRLSCAASGSIFTYNVMGWYRQAPGKERELVAAIRTRGDRTYYADSVKGRFTISRDNAKNTVYLQMNSLKPEDTAVYYCAAAGSYYSHEYWGQGTQVTVSS
(A) high polyreactivity
